Reference for the values: patent US20210145976A1

- TARGET_UNDER_TEST: T1, recombinant biotinylated CD71 extracellular domain (Sino Biologics) with an N-terminal 6His tag (human, UniProt P02786 89-760, biotinylated (sites not given))
- T1 construct: extracellular domain; also called hCD71; huCD71
- TEST_NAME: screening ELISA, ratio
I'd be grateful if you could share measured hCD71:HSA for these entries.
Numbers only.

Reference set (10 entries):
>  <BINDER>
SEQ ID NO 90 (designed binder, FN3 domain) MLPAPKNLVVSRVTEDSARLSWTAPDAAFDSFTIHYWEFDPPGEAIVLTVPGSERSYDLTGLKPGTEYTVYIEGVKGGWWSKPLSAIFTT

>  <TEST_RESULT>
429

$$$$
>  <BINDER>
SEQ ID NO 105 (designed binder, FN3 domain) MLPAPKNLVVSRVTEDSARLSWTAPDAAFDSFGIAYYERSGAGEAIVLTVPGSERSYDLTGLKPGTEYMVYINGVKGGFVSSPLSAIFTT

>  <TEST_RESULT>
1260

$$$$
>  <BINDER>
SEQ ID NO 230 (designed binder, FN3 domain) MLPAPKNLVVSRVTEDSARLSWTAPDAAFDSFQIRYPKRWISGEAIVLTVPGSERSYDLTGLKPGTEYEVVIRGVKGGEYSWPLSAIFTT

>  <TEST_RESULT>
1050

$$$$
>  <BINDER>
SEQ ID NO 204 (designed binder, FN3 domain) MLPAPKNLVVSRVTEDSARLPWTAPDAAFDSFWISYYESVGYGEAIVLTVPGSERSYDLTGLKPGTEYYVDISGVKGGVYSLPLSAIFTT

>  <TEST_RESULT>
113

$$$$
>  <BINDER>
SEQ ID NO 143 (designed binder, FN3 domain) MLPAPKNLVVSRVTEDSARLSWTAPDAAFDSFHIAYEEADSEGEAIYLRVPGSERSYDLTGLKPGTEYSVNIQGVKGGIVSFPLHAEFTT

>  <TEST_RESULT>
426

$$$$
>  <BINDER>
SEQ ID NO 186 (designed binder, FN3 domain) MLPAPKNLVVSRVTEDSARLSWTAPDAAFDSFFIGYLESAEAIVLTVPGSERSYDLTGLKPGTEYLVTIQGVKGGIASDPLSAIFTT

>  <TEST_RESULT>
1090

$$$$
>  <BINDER>
SEQ ID NO 81 (designed binder, FN3 domain) MLPAPKNLVVSRVTEDSARLSWTAPDAAFDSFVIEYREGAWYGEAIVLTVPGSERSYDLTGLKPGTEYAVYIPGVKGGPRSFPLSAIFTT

>  <TEST_RESULT>
19

$$$$
>  <BINDER>
SEQ ID NO 187 (designed binder, FN3 domain) MLPAPKNLVVSRVTEDSARLSWTAPDAAFDSFVIEYFEFVGYGEAIVLTVPGSERSYDLTGLKPGTEYSVGIYGVKGGKLSPPLSAIFTT

>  <TEST_RESULT>
422

$$$$
>  <BINDER>
SEQ ID NO 200 (designed binder, FN3 domain) MLPAPKNLVVSRVTEDSARLSWTAPDAAFDSFYIEYYEWMHTGEAIVLTVPGSERSYDLTGLKPGTEYSVYIYGVKGGYPSSPLSAIFTT

>  <TEST_RESULT>
1730

$$$$
>  <BINDER>
SEQ ID NO 238 (designed binder, FN3 domain) MLPAPKNLVVSRVTEDSARLSWTAPDAAFDSFKIFYQEFGGEAIVLTVPGSERSYDLTGLKPGTEYWVDIYGVKGGYTSSPLSAIFTT

>  <TEST_RESULT>
679

$$$$

Please supply hCD71:HSA for each of the following items, keeping them in order.
1. SEQ ID NO 172 (designed binder, FN3 domain) MLPAPKNLVVSRVTEDSARLSWTAPDAAFDSFPIEYDEWWALGEAITLIVPASERSYDLTGLKPGTEYVVKIHGVKGGQRSYPLIAFFTT
2. SEQ ID NO 271 (designed binder, FN3 domain) MLPAPKNLVVSRVTEDSARLSWTAPDAAFDSFYIPYAETRDDGEAIVLTVPGSERSYDLTGLKPGTEYSVLIHGVKGGDLSSPLSAIFTT
3. SEQ ID NO 174 (designed binder, FN3 domain) MLPAPKNLVVSRVTEDSARLSWTAPDAAFDSFFIGYLEPQPPGEAIVLTVPGSERSYDLTGLKPGTEYKVVIQGVKGGTPSEPLSAIFTT

Response given:
1160
693
1100
